System: NM107^R (S282T)
assay protocol: Susceptibility of NM107 resistant replicon cell line
Format: cell-based, hepatitis C virus
condition set: NM107^R (S282T) versus Huh-9-13
Reported Fold change in EC50 values for the following molecules.
# answer = number (no unit)

Some molecules with known Fold change in EC50 results, for comparison:
[
  {
    "molecule": "COc1ccc2c(O[C@@H]3C[C@H]4C(=O)N[C@]5(C(=O)O)C[C@H]5/C=C\\CCCCC[C@H](NC(=O)OC5CCCC5)C(=O)N4C3)cc(-c3csc(NC(C)C)n3)nc2c1 [BILN 2061]",
    "Fold change in EC50": 1.1
  },
  {
    "molecule": "C[C@@]1(O)[C@H](O)[C@@H](CO)O[C@H]1n1ccc(N)nc1=O [NM107]",
    "Fold change in EC50": 30.7
  },
  {
    "molecule": "CCCCCOc1ccc(NC(=S)NC(=O)c2cccnc2)cc1C(F)(F)F [ACH-806]",
    "Fold change in EC50": 0.5
  }
]

Quick one: give measured Fold change in EC50 for CCC[C@H](NC(=O)[C@@H]1[C@H]2CCC[C@H]2CN1C(=O)[C@@H](NC(=O)[C@@H](NC(=O)c1cnccn1)C1CCCCC1)C(C)(C)C)C(=O)C(=O)NC1CC1 [VX-950]
0.3
